Assay summary: Permeability at 10 uM at pH 7.4 by PAMPA method
Format: ADME
Applied conditions: read-out: permeability
Observable: Papp at 10 µM (×10⁻⁶ cm/s)
Answers are plain numbers, in ×10⁻⁶ cm/s.

**Q:** Using the record for COC(=O)[C@@H]1CCCN1C(=O)[C@@H](Cc1ccccc1)N(C)C(=O)[C@H](C)NC(=O)[C@H](CC(C)C)NC(=O)C[C@H](O)[C@H](Cc1ccccc1)NC(=O)c1cc(NS(C)(=O)=O)cc(C(=O)N[C@H](C)c2ccccc2)c1 , state its measured Papp at 10 µM.
**A:** 8.58

====

Measurement target: Beta-secretase 1 (Homo sapiens)
Sequence (P56817 whole entry): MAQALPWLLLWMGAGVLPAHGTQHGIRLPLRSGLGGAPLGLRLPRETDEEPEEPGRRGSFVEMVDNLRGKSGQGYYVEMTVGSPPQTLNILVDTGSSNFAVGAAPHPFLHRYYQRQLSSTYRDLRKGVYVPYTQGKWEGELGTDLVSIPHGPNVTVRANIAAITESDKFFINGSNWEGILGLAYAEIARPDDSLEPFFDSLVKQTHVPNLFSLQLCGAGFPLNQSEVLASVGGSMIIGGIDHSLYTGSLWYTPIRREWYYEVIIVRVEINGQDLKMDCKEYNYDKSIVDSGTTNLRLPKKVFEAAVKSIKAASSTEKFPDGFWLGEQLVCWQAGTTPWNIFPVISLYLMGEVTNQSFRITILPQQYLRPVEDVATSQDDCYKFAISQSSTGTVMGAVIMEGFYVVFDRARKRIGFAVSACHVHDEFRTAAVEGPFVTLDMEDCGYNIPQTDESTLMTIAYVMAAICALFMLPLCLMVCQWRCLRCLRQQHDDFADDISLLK
Assay summary: Inhibition of BACE1 by fluorescence assay
Starred links: 1 amine or outer side, 2 acyl side, 3 side chain; linkers in the order of their positions; H or OH if unused. Non-standard residues stand in square brackets, D forms with d. Residues, ends and D or L forms follow the SMILES beside them. Ahppa(3S,4S) = O=C(C[C@H](O)[C@H](Cc1ccccc1)N[*:1])[*:2]; dNMeF = CN[C@H](Cc1ccccc1)C(=O)O; NMeQ = CN[C@@H](CCC(N)=O)C(=O)O; Lac = C[C@H](O)C(=O)O
Please respond with reported pIC50 for every item in the list.
Numbers only, as −log10 of the molar value.

compound="CC(C)C[C@H](NC(=O)C[C@H](O)[C@H](Cc1ccccc1)NC(=O)[C@H](CCC(N)=O)N(C)C(=O)[C@@H](NC(=O)[C@H](C)O)C(C)C)C(=O)N[C@@H](C)C(=O)N(C)[C@H](Cc1ccccc1)C(=O)O (H-[Lac]V[NMeQ][Ahppa(3S,4S)]LA[dNMeF]-OH)" experimental_result=7.14
compound=CC(C)C[C@H](NC(=O)C[C@H](O)[C@H](Cc1ccccc1)NC(=O)[C@H](CCC(N)=O)N(C)C(=O)[C@@H](NC(=O)[C@H](C)O)C(C)C)C(=O)N[C@@H](C)C(=O)N(C)[C@H](Cc1ccccc1)C(=O)NC(C)C experimental_result=6.78
compound=COC(=O)[C@@H]1CCCN1C(=O)[C@@H](Cc1ccccc1)N(C)C(=O)[C@H](C)NC(=O)[C@H](CC(C)C)NC(=O)C[C@H](O)[C@H](Cc1ccccc1)NC(=O)c1cc(NS(C)(=O)=O)cc(C(=O)N[C@H](C)c2ccccc2)c1 experimental_result=6.89

**Q:** Provide pIC50, recorded with Beta-secretase 1 (Homo sapiens), of CC(C)C[C@H](NC(=O)C[C@H](O)[C@H](Cc1ccccc1)NC(=O)[C@H](CCC(N)=O)N(C)C(=O)[C@@H](NC(=O)[C@H](C)O)C(C)C)C(=O)N[C@@H](C)C(=O)N(C)[C@H](Cc1ccccc1)C(=O)NCc1ccccc1
**A:** 6.91

====

Notes on IC50 obtained with UniProt:P07339.
Sequence (P07339 65-162 limits assumed): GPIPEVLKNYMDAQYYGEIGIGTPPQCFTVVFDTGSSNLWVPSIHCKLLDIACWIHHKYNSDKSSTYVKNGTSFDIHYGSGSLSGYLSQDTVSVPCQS
Sequence (P07339 169-412 limits assumed): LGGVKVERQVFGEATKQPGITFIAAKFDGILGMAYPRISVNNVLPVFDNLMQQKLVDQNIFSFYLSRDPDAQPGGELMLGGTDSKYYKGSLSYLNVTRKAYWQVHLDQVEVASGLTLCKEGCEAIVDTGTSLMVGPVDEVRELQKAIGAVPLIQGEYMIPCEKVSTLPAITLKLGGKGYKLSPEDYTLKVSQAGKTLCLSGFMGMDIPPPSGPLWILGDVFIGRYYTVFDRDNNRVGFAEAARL
Starred links: 1 amine or outer side, 2 acyl side, 3 side chain; linkers in the order of their positions; H or OH if unused. Non-standard residues stand in square brackets, D forms with d. Residues, ends and D or L forms follow the SMILES beside them. *: point of attachment. Ahppa(3S,4S) = O=C(C[C@H](O)[C@H](Cc1ccccc1)N[*:1])[*:2]; dNMeF = CN[C@H](Cc1ccccc1)C(=O)O; NMeQ = CN[C@@H](CCC(N)=O)C(=O)O; Cbz = O=C(OCc1ccccc1)*; Lac = C[C@H](O)C(=O)O
One number for each entry, in nM.

Answered cases to consult:
molecule="CC(C)C[C@H](NC(=O)C[C@H](O)[C@H](Cc1ccccc1)NC(=O)[C@H](CCC(N)=O)N(C)C(=O)[C@@H](NC(=O)[C@H](C)O)C(C)C)C(=O)N[C@@H](C)C(=O)N(C)[C@H](Cc1ccccc1)C(=O)O (H-[Lac]V[NMeQ][Ahppa(3S,4S)]LA[dNMeF]-OH)" observable=IC50 experimental_result=54.1
molecule=COC(=O)[C@@H]1CCCN1C(=O)[C@@H](Cc1ccccc1)N(C)C(=O)[C@H](C)NC(=O)[C@H](CC(C)C)NC(=O)C[C@H](O)[C@H](Cc1ccccc1)NC(=O)[C@H](CCC(N)=O)NC(C)=O observable=IC50 experimental_result=7.81
molecule=COC(=O)[C@@H](Cc1ccccc1)N(C)C(=O)[C@H](C)NC(=O)[C@H](CC(C)C)NC(=O)C[C@H](O)[C@H](Cc1ccccc1)NC(C)=O observable=IC50 experimental_result=412

Below: the item to evaluate.
**Q:** Using the record for COC(=O)[C@@H]1CCCN1C(=O)[C@@H](Cc1ccccc1)N(C)C(=O)[C@H](C)NC(=O)[C@H](CC(C)C)NC(=O)C[C@H](O)[C@H](Cc1ccccc1)NC(=O)[C@H](CCC(N)=O)N(C)C(=O)[C@@H](NC(=O)OCc1ccccc1)C(C)C (Cbz-V[NMeQ][Ahppa(3S,4S)]LA[dNMeF]P-OMe) , state its measured IC50.
**A:** 0.0783
